# credit: a melting point compilation (Tetko et al.; mined from patent text by program, amines drawn as free bases though some values may be those of a salt)

Hi there, I'd appreciate the recorded melting point for every entry that follows.

Input line: Answer with the recorded melting point for the compound listed here: CN(C)C=Nc1c(S(=O)C(F)(F)F)c(-c2ncon2)nn1-c1c(Cl)cc(C(F)(F)F)cc1Cl (centres undefined)
Output line: 140 °C

Input line: Answer with the recorded melting point for the compound listed here: `CN(C)c1ccc(C(=O)N2CCN(CCc3ccc(Cl)cc3)CC2)cc1`
Output line: 133 to 134 °C

Input line: Answer with the recorded melting point for the compound listed here: `CCc1cc(C(=O)c2ccccc2Cl)c(-n2c(C)nnc2CNC(=O)c2[nH]c3ccccc3c2C)s1`
Output line: 143 to 147 °C

Input line: Answer with the recorded melting point for the compound listed here: `CC(C)(Cc1cc2nc(Cl)ccc2n1S(=O)(=O)c1ccccc1)C(=O)O`
Output line: 208 to 211 °C
